Sequence of the target: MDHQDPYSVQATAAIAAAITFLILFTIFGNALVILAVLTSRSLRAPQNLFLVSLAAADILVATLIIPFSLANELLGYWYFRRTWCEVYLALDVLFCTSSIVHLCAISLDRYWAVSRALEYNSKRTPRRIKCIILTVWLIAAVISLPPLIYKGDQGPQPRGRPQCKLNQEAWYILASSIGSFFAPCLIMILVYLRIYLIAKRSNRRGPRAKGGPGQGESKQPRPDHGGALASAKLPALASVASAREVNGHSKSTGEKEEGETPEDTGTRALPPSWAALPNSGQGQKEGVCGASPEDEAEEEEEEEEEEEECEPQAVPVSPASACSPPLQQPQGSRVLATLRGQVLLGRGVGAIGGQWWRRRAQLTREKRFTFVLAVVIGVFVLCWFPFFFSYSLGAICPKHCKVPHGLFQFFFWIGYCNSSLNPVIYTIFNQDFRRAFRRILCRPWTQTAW
reported_metric: Ki
Number first, unit second.

Sample `CCCc1c(SCCCOc2ccc(C(C)=O)c(OCCCC(=O)O)c2CCC)ccc(C(C)=O)c1O` ; Ki observed: 1280 nM

====

- target_of_assay: UniProt P23975
- Sequence (P23975 whole entry): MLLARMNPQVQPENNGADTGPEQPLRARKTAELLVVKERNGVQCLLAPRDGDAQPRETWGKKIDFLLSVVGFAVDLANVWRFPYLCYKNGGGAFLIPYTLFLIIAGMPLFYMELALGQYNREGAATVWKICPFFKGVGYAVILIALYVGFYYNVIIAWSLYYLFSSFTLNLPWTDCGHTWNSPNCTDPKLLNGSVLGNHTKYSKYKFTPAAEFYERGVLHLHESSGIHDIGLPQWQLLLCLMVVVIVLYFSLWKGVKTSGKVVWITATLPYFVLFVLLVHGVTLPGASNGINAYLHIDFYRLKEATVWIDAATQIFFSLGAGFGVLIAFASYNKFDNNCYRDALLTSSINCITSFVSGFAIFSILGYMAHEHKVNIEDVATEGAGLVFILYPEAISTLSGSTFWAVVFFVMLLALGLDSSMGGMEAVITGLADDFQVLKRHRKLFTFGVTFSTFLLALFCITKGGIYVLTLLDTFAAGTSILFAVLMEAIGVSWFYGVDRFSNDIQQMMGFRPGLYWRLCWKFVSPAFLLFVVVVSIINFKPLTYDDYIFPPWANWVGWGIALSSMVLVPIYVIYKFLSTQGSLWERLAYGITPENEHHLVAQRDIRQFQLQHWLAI
- experimental_protocol: Biochemical assay Adrenergic, NE Transporter
- Type: binding
- condition_set: Hu
reported_metric: pIC50
# pIC50: negative log10 of molar concentration; output just the value

Sample CCCc1c(SCCCOc2ccc(C(C)O)c(OCCCC(=O)O)c2CCC)ccc(C(C)=O)c1O (stereo not shown) ; pIC50 observed: 5.69

====

- target_of_assay: Adrenergic α2B (Homo sapiens, UniProt P18089)
reported_metric: pIC50
# pIC50: negative log10 of molar concentration; output just the value

The compound CCCc1c(SCCCOc2ccc(C(C)O)c(OCCCC(=O)O)c2CCC)ccc(C(C)=O)c1O (stereo not shown) on Adrenergic α2B (Homo sapiens, UniProt P18089): pIC50 was 5.80

====

- target_of_assay: PDE2 (Homo sapiens, UniProt O00408)
- Sequence (O00408 whole entry): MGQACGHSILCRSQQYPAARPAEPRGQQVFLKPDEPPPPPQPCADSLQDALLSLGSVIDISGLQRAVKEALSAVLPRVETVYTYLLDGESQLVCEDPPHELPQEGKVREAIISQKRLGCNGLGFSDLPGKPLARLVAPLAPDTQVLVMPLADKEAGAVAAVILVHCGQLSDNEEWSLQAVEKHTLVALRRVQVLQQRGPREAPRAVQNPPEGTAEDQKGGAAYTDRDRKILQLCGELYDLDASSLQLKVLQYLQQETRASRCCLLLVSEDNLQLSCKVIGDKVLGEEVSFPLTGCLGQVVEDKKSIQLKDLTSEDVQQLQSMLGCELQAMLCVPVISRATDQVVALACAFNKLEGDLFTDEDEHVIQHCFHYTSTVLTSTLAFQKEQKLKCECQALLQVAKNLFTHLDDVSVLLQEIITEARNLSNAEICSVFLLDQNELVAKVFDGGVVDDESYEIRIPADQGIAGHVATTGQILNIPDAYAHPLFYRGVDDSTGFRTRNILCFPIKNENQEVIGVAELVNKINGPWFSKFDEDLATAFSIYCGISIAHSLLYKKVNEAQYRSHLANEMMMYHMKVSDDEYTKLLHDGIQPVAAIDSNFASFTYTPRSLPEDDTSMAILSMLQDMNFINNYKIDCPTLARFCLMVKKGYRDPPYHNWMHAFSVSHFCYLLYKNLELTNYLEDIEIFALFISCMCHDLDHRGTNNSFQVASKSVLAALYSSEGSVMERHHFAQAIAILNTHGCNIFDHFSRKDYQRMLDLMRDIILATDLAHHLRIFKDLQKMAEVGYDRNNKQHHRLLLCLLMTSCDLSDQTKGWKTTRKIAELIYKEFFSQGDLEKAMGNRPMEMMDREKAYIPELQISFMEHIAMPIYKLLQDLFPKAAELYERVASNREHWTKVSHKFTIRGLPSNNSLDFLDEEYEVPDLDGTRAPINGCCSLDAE
reported_metric: IC50 (µM)
Number only, in µM; omit the unit.

The compound CCCc1c(SCCCOc2ccc(C(C)O)c(OCCCC(=O)O)c2CCC)ccc(C(C)=O)c1O (stereo not shown) on PDE2 (Homo sapiens, UniProt O00408): IC50 was 3.38

====

- target_of_assay: PDE6 (Bos taurus, UniProt P11541+P23439)
- Sequence (P11541 whole entry): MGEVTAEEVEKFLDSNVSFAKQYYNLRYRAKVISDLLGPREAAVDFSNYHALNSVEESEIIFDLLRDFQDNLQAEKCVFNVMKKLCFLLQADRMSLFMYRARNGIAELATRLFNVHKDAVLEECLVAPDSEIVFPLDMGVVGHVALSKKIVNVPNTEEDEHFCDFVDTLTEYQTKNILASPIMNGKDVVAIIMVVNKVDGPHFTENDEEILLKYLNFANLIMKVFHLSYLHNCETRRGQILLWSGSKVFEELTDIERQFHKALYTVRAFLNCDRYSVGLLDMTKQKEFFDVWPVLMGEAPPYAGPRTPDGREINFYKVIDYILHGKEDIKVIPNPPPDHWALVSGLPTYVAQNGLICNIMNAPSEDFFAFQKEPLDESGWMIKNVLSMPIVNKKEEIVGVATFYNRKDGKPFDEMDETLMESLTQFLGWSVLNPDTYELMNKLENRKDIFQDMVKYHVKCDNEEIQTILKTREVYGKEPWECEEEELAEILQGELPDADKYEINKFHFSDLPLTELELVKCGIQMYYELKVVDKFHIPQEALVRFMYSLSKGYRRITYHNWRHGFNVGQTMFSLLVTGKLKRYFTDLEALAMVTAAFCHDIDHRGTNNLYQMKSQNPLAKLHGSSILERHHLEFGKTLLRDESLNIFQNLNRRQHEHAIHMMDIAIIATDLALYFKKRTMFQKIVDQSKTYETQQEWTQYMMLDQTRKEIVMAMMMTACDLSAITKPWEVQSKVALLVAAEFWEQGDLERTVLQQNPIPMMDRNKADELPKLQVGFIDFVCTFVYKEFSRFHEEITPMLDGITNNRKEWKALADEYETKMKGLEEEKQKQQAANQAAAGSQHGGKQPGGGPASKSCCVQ
- Sequence (P23439 whole entry): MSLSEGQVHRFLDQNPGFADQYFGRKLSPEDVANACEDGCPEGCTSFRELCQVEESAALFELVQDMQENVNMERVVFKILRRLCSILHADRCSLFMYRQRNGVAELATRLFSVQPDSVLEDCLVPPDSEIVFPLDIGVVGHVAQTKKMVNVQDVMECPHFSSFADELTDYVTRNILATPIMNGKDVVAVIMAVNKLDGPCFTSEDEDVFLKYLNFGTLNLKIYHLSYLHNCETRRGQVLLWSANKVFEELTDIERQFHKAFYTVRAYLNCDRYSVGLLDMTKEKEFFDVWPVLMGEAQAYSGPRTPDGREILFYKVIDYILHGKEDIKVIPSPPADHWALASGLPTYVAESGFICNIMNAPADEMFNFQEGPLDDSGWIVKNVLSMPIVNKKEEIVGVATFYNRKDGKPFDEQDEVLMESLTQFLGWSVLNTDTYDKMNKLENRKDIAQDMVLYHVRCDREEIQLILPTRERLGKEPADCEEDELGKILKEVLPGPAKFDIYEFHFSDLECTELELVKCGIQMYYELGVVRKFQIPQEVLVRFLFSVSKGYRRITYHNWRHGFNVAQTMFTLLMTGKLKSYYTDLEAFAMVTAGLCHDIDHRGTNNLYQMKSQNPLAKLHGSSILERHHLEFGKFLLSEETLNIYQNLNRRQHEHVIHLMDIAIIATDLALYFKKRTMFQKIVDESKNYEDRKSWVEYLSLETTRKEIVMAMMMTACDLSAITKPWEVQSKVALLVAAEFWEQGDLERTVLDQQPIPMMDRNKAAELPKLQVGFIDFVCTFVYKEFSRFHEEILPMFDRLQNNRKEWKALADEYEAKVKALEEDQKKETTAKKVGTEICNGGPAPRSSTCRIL
- experimental_protocol: Biochemical assay PDE6
- condition_set: PDE6, Bov
reported_metric: pIC50
# pIC50: negative log10 of molar concentration; output just the value

CCCc1c(SCCCOc2ccc(C(C)=O)c(OCCCC(=O)O)c2CCC)ccc(C(C)=O)c1O [Compound 1] :: 5.69

Kindly consider the entry below.
Sample CCCc1c(SCCCOc2ccc(C(C)O)c(OCCCC(=O)O)c2CCC)ccc(C(C)=O)c1O (centres unmarked) [Compound 2] ; pIC50 observed: 5.76

====

- target_of_assay: Opiate δ (Homo sapiens, UniProt P41143)
- Sequence (P41143 whole entry): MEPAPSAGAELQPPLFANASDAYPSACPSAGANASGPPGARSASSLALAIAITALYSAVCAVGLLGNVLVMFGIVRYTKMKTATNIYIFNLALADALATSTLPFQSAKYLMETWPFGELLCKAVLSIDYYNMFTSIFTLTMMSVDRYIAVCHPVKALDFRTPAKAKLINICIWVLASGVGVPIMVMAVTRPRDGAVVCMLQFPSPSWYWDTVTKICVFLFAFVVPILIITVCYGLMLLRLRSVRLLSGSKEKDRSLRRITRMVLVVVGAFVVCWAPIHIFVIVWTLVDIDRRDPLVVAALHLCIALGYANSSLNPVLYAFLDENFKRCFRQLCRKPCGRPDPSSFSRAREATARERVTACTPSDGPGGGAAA
reported_metric: pIC50
# pIC50: negative log10 of molar concentration; output just the value

The compound CCCc1c(SCCCOc2ccc(C(C)=O)c(OCCCC(=O)O)c2CCC)ccc(C(C)=O)c1O [Compound 1] on Opiate δ (Homo sapiens, UniProt P41143): pIC50 was 5.98
